Let's look at some variants and their measured protein stability index.
B1: KCNG1 (parent)
chain: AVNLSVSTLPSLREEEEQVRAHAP

# Variants of: B1
# Protocol Details: protein stability index of a GFP-peptide fusion (GPS, HEK-293T) (PSI 1-6); higher = more stable;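 further: lentivirally expressed fusions sorted by FACS into six bins by GFP to DsRed ratio, PSI derived from sequencing read proportions per bin multiplied by bin number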
# Conditions: c terminus: a fixed tail appended
Readout Kind: protein stability index

> print(dat)
   mutation.annotation  value.observed
1                 P24V            5.11
2                 Q18L               5
3                 A23R            5.04
4                  S7Q            4.91
5                  L4S            5.05

The reported numbers originate from the supplement of paper PMC10567573.
